test-details: Drug uptake in C57BL/6N mouse blood at 10 mg/kg, IP measured after 30 mins of dosing by LC-MS/MS analysis
Format: ADME, organism-based
condition-context: whole blood, read-out: Drug uptake
quantity-name: concentration at 0.5 h (ng/mL)
Give bare numbers, in ng/mL.

Prompt: Which concentration at 0.5 h reading was recorded for the compound `Nc1ccn([C@@H]2O[C@H](CO)[C@@H](O)C2(F)F)c(=O)n1` ?
Response: 685

====

System: DU-145
test-details: Antiproliferative activity against human DU-145 cells measured after 72 hrs by MTT assay
Assay type: functional, cell-based
condition-context: DU-145, 72 h
Where a SMILES comes first, the peptide text is derived from it. [ ]: non-standard residue; d: D form. The star is where a group is joined. ξ: configuration not given here. X1 = Nc1ccn(C2OC(COC(=O)CO/N=C/C(=O)*)C(O)C2(F)F)c(=O)n1; X2 = O=C(CO/N=C/C(=O)*)Nc1ccn(C2OC(CO)C(O)C2(F)F)c(=O)n1; X3 = Nc1ccn(C2OC(CO)C(OC(=O)CO/N=C/C(=O)*)C2(F)F)c(=O)n1; ξAla(indol-2-yl) = NC(Cc1cc2ccccc2[nH]1)C(=O)O; pGlu = O=C1CC[CH](C(=O)O)N1
Please provide measured pIC50 for the entries that follow.
Numbers only, as −log10 of the molar value.

# annotated cases, reported pIC50 shown
compound	quantity-name	value-observed
Nc1ccn([C@@H]2O[C@H](CO)[C@@H](O)C2(F)F)c(=O)n1	pIC50	6.40
CC(C)CC(NC(=O)C(CCCCNC(=O)/C=N/OCC(=O)OC1C(CO)OC(n2ccc(N)nc2=O)C1(F)F)NC(=O)C(Cc1ccc(O)cc1)NC(=O)C(CO)NC(=O)C(Cc1cc2ccccc2[nH]1)NC(=O)C(Cc1c[nH]cn1)NC(=O)C1CCC(=O)N1)C(=O)NC(CCCNC(=N)N)C(=O)N1CCCC1C(=O)NCC(N)=O (centres undefined) ([pGlu]H[ξAla(indol-2-yl)]SYK(X3)LRPG-NH2; configuration not given here)	pIC50	6.31
CC(C)CC(NC(=O)C(CCCCNC(=O)/C=N/OCC(=O)OCC1OC(n2ccc(N)nc2=O)C(F)(F)C1O)NC(=O)C(Cc1ccc(O)cc1)NC(=O)C(CO)NC(=O)C(Cc1cc2ccccc2[nH]1)NC(=O)C(Cc1c[nH]cn1)NC(=O)C1CCC(=O)N1)C(=O)NC(CCCNC(=N)N)C(=O)N1CCCC1C(=O)NCC(N)=O (centres undefined) ([pGlu]H[ξAla(indol-2-yl)]SYK(X1)LRPG-NH2; configuration not given here)	pIC50	6.21

Consider the record given below.
Prompt: Which pIC50 reading was recorded for the compound CC(C)CC(NC(=O)C(CCCCNC(=O)/C=N/OCC(=O)Nc1ccn(C2OC(CO)C(O)C2(F)F)c(=O)n1)NC(=O)C(Cc1ccc(O)cc1)NC(=O)C(CO)NC(=O)C(Cc1cc2ccccc2[nH]1)NC(=O)C(Cc1c[nH]cn1)NC(=O)C1CCC(=O)N1)C(=O)NC(CCCNC(=N)N)C(=O)N1CCCC1C(=O)NCC(N)=O (centres undefined) ([pGlu]H[ξAla(indol-2-yl)]SYK(X2)LRPG-NH2; configuration not given here) ?
Response: 6.23
